Listed below: molar absorption coefficient (ε) values for each entry.
run.description: Absorption spectrum in ethyl acetate solution (spectrophotometer UV-2400PC)
Format: physicochemical
Experimental: In consideration of film thickness, the molar absorption coefficient of the specific metal complex compounds-1, -2, -3 and -4 of the invention is preferably as high as possible, and 60,000 or higher is preferable. […] The maximum absorption wavelength and the molar absorption coefficient are determined by using a spectrophotometer UV-2400PC (manufactured by Shimadzu Corporation). […]
quantity.name: molar absorption coefficient (ε)

# compound, result
measured = [
    ("CC1CC(C(C)(C)C)C(OC(=O)C2=C(c3ccccc3)C3=Cc4c(-c5ccccc5)c(C(=O)OC5C(C(C)(C)C)CC(C)CC5C(C)(C)C)c(NC(=O)c5ccc(OC(F)(F)F)cc5)[n]4[Zn-]([OH])[N+]3=C2NC(=O)c2ccc(OC(F)(F)F)cc2)C(C(C)(C)C)C1 (stereo not shown) [IIb-8]", "92,600"),
    ("CC1CC(C(C)(C)C)C(OC(=O)c2c(-c3ccccc3)c3[n](c2NC(=O)c2ccc(F)c(F)c2)[Zn-]([OH])[N+]2=C(NC(=O)C(C)Sc4cc(C(=O)O)cc(C(=O)O)c4)C(C#N)=C(c4ccccc4)C2=C3)C(C(C)(C)C)C1 (stereo not shown) [Ib-35]", "80,500"),
    ("CC1CC(C(C)(C)C)C(OC(=O)c2c(-c3ccccc3)c3[n](c2NC(=O)c2cc(F)ccc2NS(C)(=O)=O)[Zn-]([OH])[N+]2=C(NC(=O)C(C)Sc4cc(C(=O)O)cc(C(=O)O)c4)C(C#N)=C(c4ccccc4)C2=C3)C(C(C)(C)C)C1 (stereo not shown) [Ib-49]", "91,500"),
    ("Cc1c(C(=O)OC2C(C(C)(C)C)CC(C)CC2C(C)(C)C)c(NC(=O)c2ccc(C(F)(F)F)cc2)[n]2c1C=C1C(c3ccccc3)=C(C#N)C(NC(=O)C(C)Sc3cc(C(=O)O)cc(C(=O)O)c3)=[N+]1[Zn-]2[OH] (stereo not shown) [Ia-23]", "83,200"),
]

---

run.description: Absorption spectrum in ethyl acetate solution (spectrophotometer UV-2400PC)
Assay type: physicochemical
test.context: 450 nm
Listed below: Abs value at 450 nm when normalized to Abs = 1.0 at λmax values for each entry.
quantity.name: Abs value at 450 nm when normalized to Abs = 1.0 at λmax

# molecule, numeric.result
rows = [
    ("CC1=C(C(=O)OC2C(C(C)(C)C)CC(C)CC2C(C)(C)C)C(NC(=O)c2cccc(C(F)(F)F)c2)=[N+]2C1=Cc1c(C)c(C(=O)OC3C(C(C)(C)C)CC(C)CC3C(C)(C)C)c(NC(=O)c3cccc(C(F)(F)F)c3)[n]1[Zn-]2[OH] (stereo not drawn) [IIa-6]", 0.0127),
    ("Cc1c(C(=O)OC2C(C(C)(C)C)CC(C)CC2C(C)(C)C)c(NC(=O)c2cccc(C(F)(F)F)c2)[n]2c1C=C1C(c3ccccc3)=C(C#N)C(NC(=O)C(C)Sc3cc(C(=O)O)cc(C(=O)O)c3)=[N+]1[Zn-]2[OH] (stereo not drawn) [Ia-15]", 0.091),
    ("CC1CC(C(C)(C)C)C(OC(=O)C2=C(c3ccccc3)C3=Cc4c(-c5ccccc5)c(C(=O)OC5C(C(C)(C)C)CC(C)CC5C(C)(C)C)c(NC(=O)c5cc(F)ccc5NS(C)(=O)=O)[n]4[Zn-]([OH])[N+]3=C2NC(=O)c2cc(F)ccc2NS(C)(=O)=O)C(C(C)(C)C)C1 (stereo not drawn) [IIb-20]", 0.082),
    ("CC1=C(C(=O)OC2C(C(C)(C)C)CC(C)CC2C(C)(C)C)C(NC(=O)c2cc(C(F)(F)F)cc(C(F)(F)F)c2)=[N+]2C1=Cc1c(C)c(C(=O)OC3C(C(C)(C)C)CC(C)CC3C(C)(C)C)c(NC(=O)c3cc(C(F)(F)F)cc(C(F)(F)F)c3)[n]1[Zn-]2[OH] (stereo not drawn) [IIa-14]", 0.0114),
    ("CC1=C(C(=O)OC2C(C(C)(C)C)CC(C)CC2C(C)(C)C)C(NC(=O)c2ccc(C(F)(F)F)cc2)=[N+]2C1=Cc1c(C)c(C(=O)OC3C(C(C)(C)C)CC(C)CC3C(C)(C)C)c(NC(=O)c3ccc(C(F)(F)F)cc3)[n]1[Zn-]2[OH] (stereo not drawn) [IIa-7]", 0.0089),
    ("CC1CC(C(C)(C)C)C(OC(=O)C2=C(c3ccccc3)C3=Cc4c(-c5ccccc5)c(C(=O)OC5C(C(C)(C)C)CC(C)CC5C(C)(C)C)c(NC(=O)c5ccc(C(F)(F)F)cc5)[n]4[Zn-]([OH])[N+]3=C2NC(=O)c2ccc(C(F)(F)F)cc2)C(C(C)(C)C)C1 (stereo not drawn) [IIb-7]", 0.0123),
    ("CC1CC(C(C)(C)C)C(OC(=O)c2c(-c3ccccc3)c3[n](c2NC(=O)c2c(F)c(F)c(F)c(F)c2F)[Zn-]([OH])[N+]2=C(NC(=O)C(C)Sc4cc(C(=O)O)cc(C(=O)O)c4)C(C#N)=C(c4ccccc4)C2=C3)C(C(C)(C)C)C1 (stereo not drawn) [Ib-75]", 0.0099),
    ("Cc1c(C(=O)OC2C(C(C)(C)C)CC(C)CC2C(C)(C)C)c(NC(=O)c2cccc(C(F)(F)F)c2)[n]([Zn][OH])c1C=C1N=C(NC(=O)C(C)(C)C)C(C#N)=C1c1ccccc1 (stereo not drawn) [Ia-14]", 0.0112),
    ("CC1CC(C(C)(C)C)C(OC(=O)c2c(-c3ccccc3)c(C=C3N=C(NC(=O)C(C)(C)C)C(C#N)=C3c3ccccc3)[n]([Zn][OH])c2NC(=O)c2cccc(C(F)(F)F)c2)C(C(C)(C)C)C1 (stereo not drawn) [Ib-14]", 0.0105),
    ("CC1CC(C(C)(C)C)C(OC(=O)C2=C(c3ccccc3)C3=Cc4c(-c5ccccc5)c(C(=O)OC5C(C(C)(C)C)CC(C)CC5C(C)(C)C)c(NC(=O)c5cccc(C(F)(F)F)c5)[n]4[Zn-]([OH])[N+]3=C2NC(=O)c2cccc(C(F)(F)F)c2)C(C(C)(C)C)C1 (stereo not drawn) [IIb-6]", 0.0079),
    ("CC1=C(C(=O)OC2C(C(C)(C)C)CC(C)CC2C(C)(C)C)C(NC(=O)c2ccc(C(F)(F)F)cc2F)=[N+]2C1=Cc1c(C)c(C(=O)OC3C(C(C)(C)C)CC(C)CC3C(C)(C)C)c(NC(=O)c3ccc(C(F)(F)F)cc3F)[n]1[Zn-]2[OH] (stereo not drawn) [IIa-15]", 0.0095),
    ("CC1CC(C(C)(C)C)C(OC(=O)c2c(-c3ccccc3)c(C=C3N=C(NC(=O)C(C)(C)C)C(C#N)=C3c3ccccc3)[n]([Zn][OH])c2NC(=O)c2c(F)c(F)c(C(=O)O)c(F)c2F)C(C(C)(C)C)C1 (stereo not drawn) [Ib-69]", 0.0111),
    ("CC(=O)NC1=[N+]2C(=Cc3c(-c4ccccc4)c(C(=O)OC4C(C(C)(C)C)CC(C)CC4C(C)(C)C)c(NC(=O)c4cc(F)c(F)c(F)c4)[n]3[Zn-]2[OH])C(c2ccccc2)=C1C#N (stereo not drawn) [Ib-61]", 0.0101),
    ("CC1CC(C(C)(C)C)C(OC(=O)c2c(-c3ccccc3)c3[n](c2NC(=O)c2cccc(C(F)(F)F)c2)[Zn-]([OH])[N+]2=C(NC(=O)C(C)SCCCS(=O)(=O)[O-])C(C#N)=C(c4ccccc4)C2=C3)C(C(C)(C)C)C1.[Na+] (stereo not drawn) [Ib-20]", 0.0142),
    ("CC1CC(C(C)(C)C)C(OC(=O)c2c(-c3ccccc3)c3[n](c2NC(=O)c2ccc(F)c(Br)c2)[Zn-]([OH])[N+]2=C(NC(=O)C(C)Sc4cc(C(=O)O)cc(C(=O)O)c4)C(C#N)=C(c4ccccc4)C2=C3)C(C(C)(C)C)C1 (stereo not drawn) [Ib-53]", 0.0082),
    ("CC1=C(C(=O)OC2C(C(C)(C)C)CC(C)CC2C(C)(C)C)C(NC(=O)c2c(F)c(F)c(O)c(F)c2F)=[N+]2C1=Cc1c(C)c(C(=O)OC3C(C(C)(C)C)CC(C)CC3C(C)(C)C)c(NC(=O)c3c(F)c(F)c(O)c(F)c3F)[n]1[Zn-]2[OH] (stereo not drawn) [IIa-39]", 0.0119),
    ("CC1CC(C(C)(C)C)C(OC(=O)c2c(-c3ccccc3)c(C=C3N=C(NC(=O)C(C)SCCCS(=O)(=O)[O-])C(C#N)=C3c3ccccc3)[n]([Zn][OH])c2NC(=O)c2cc(F)cc(F)c2)C(C(C)(C)C)C1.[Na+] (stereo not drawn) [Ib-40]", 0.0082),
    ("CC1CC(C(C)(C)C)C(OC(=O)C2=C(c3ccccc3)C3=Cc4c(-c5ccccc5)c(C(=O)OC5C(C(C)(C)C)CC(C)CC5C(C)(C)C)c(NC(=O)c5ccc(F)c(F)c5)[n]4[Zn-]([OH])[N+]3=C2NC(=O)c2ccc(F)c(F)c2)C(C(C)(C)C)C1 (stereo not drawn) [IIb-13]", 0.0107),
]
